# target.desc: 5-hydroxytryptamine receptor 1A (Homo sapiens, UniProt P08908)
# test.method.notes: Antagonist activity at 5HT1A
pKi: −log10 of the molar value.
attribute.measured: pKi

a: OC(CCN1CCN(c2ccc3ncccc3c2)CC1)c1csc2ccccc12 (configuration not stated)
b: COc1ccccc1N1CCN(CCC(O)c2ccc([N+](=O)[O-])cc2)CC1 (configuration not stated)
Data request: Hi there! Just curious which has the higher pKi between a and b . Could you answer with the label of the item you picked?
Data returned: b
(b: 8.00, a: 6.26)

----------
# target.desc: 5-hydroxytryptamine receptor 1A (Homo sapiens, UniProt P08908)
# Sequence (P08908 whole entry): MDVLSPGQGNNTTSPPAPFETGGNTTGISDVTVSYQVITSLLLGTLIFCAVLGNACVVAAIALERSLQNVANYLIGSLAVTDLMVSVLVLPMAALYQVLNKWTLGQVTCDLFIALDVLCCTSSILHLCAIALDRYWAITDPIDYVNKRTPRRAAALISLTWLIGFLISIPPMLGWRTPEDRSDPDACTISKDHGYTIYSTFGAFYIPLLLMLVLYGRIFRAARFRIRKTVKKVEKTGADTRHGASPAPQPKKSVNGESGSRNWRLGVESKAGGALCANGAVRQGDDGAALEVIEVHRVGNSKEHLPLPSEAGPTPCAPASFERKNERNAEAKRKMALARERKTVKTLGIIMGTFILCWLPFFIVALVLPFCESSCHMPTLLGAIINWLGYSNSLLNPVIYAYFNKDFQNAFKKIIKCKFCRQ
# test.method.notes: Antagonist activity at 5HT1A
pKi: −log10 of the molar value.
attribute.measured: pKi

Recorded results for 2 compounds are shown here.
>>> quantitative_result("Cc1cc(C(O)CCN2CCN(c3ccccc3O)CC2)c(C)s1 (stereo not given)")
7.05
>>> quantitative_result("COc1ccccc1N1CCN(CCC(Oc2ccc3c(c2)OCO3)c2ccccc2)CC1 (stereo not given)")
7.70

1: Oc1ccccc1N1CCN(CCC(O)c2ccc3ccccc3c2)CC1 (stereo not given)
2: Cc1cc(C(=O)CCN2CCN(c3cccc4ccccc34)CC2)c(C)s1
Data request: Returns the identifier with the smallest measured pKi among 1 and 2 . I would appreciate it if you answered with the label of your choice.
Data returned: 2

1: COc1ccccc1N1CCN(CCC(=O)c2ccc([N+](=O)[O-])cc2)CC1
2: COc1ccccc1N1CCN(CC/C(=N\O)c2csc3ccccc23)CC1
3: COc1ccccc1N1CCN(CCC(=O)c2cc(C)sc2C)CC1
Data request: List the 3 entries from lowest pKi to highest pKi value. # answer = labels listed in requested order
Data returned: 3, 2, 1

----------
# target.desc: 5-hydroxytryptamine receptor 1A (Homo sapiens, UniProt P08908)
# test.method.notes: Antagonist activity at 5HT1A
attribute.measured: Ki (µM)

Look over these answered cases.
>>> quantitative_result("OC(CCN1CCN(c2ccc3sccc3c2)CC1)c1csc2ccccc12 (stereo not drawn)")
1.58
>>> quantitative_result("COc1ccccc1N1CCN(CCC(Oc2ccc3c(c2)OCO3)c2ccsc2)CC1 (stereo not drawn)")
0.055
>>> quantitative_result("COc1ccccc1N1CCN(CCC(=O)c2ccsc2)CC1")
0.0603
>>> quantitative_result("OC(CCN1CCN(c2cccc3cccnc23)CC1)c1csc2ccccc12 (stereo not drawn)")
0.55
>>> quantitative_result("FC(F)(F)c1ccc(OC(CCN2CCN(c3ccc(Cl)cc3)CC2)c2ccccc2)cc1 (stereo not drawn)")
5.01
>>> quantitative_result("OC(CCN1CCN(c2cccc3ncccc23)CC1)c1csc2ccccc12 (stereo not drawn)")
0.0372
>>> quantitative_result("COc1ccccc1N1CCN(CCC(O)c2ccc(-c3ccccc3)cc2)CC1 (stereo not drawn)")
0.851
>>> quantitative_result("COc1ccccc1N1CCN(CCC(Oc2cccc3ccccc23)c2cccs2)CC1 (stereo not drawn)")
0.219
>>> quantitative_result("OC(CCN1CCN(c2ccccc2Cl)CC1)c1ccsc1 (stereo not drawn)")
5.01
>>> quantitative_result("OC(CCN1CCN(c2cccc3c2OCCCO3)CC1)c1csc2ccc(F)cc12 (stereo not drawn)")
0.00302

A: OC(CCN1CCN(c2cccc3c2OCCO3)CC1)c1csc2ccc(F)cc12 (stereo not drawn)
B: OC(CCN1CCN(c2cccc3cccnc23)CC1)c1csc2ccc(F)cc12 (stereo not drawn)
Data request: Field: lower recorded Ki (choose A or B ) Write the label of whichever entry you select.
Data returned: B

Reference source for all entries: ChEMBL document CHEMBL1157053
